method_description: Pharmacokinetic study, single dose by IV, IP, PO
Format: in vivo, wild type B6 mice
recorded_conditions: B6, mouse, plasma; PO, 10 mg/kg single dose
Procedure: […] Briefly, wild type B6 mice were injected with a single dose (10 mg/kg) of Cpd3 by three different injection routes: oral gavage (PO), intravenous (IV) and intraperitoneal (IP) (N=4 per route). […] Blood plasma was sampled at time zero (0) and […] additional time points (15, 30 and 60 minutes, and 2, 6 and 24 hours), and the level of Cpd3 determined in mouse plasma by LC-MS/MS assay as described above. […]
reported_endpoint: Tmax (min)
Write it as a number; the unit min goes unstated.

response.value for `CCOc1ccc(-c2ccc(-c3cc(C(=O)O)c4cc(F)ccc4n3)cc2)cc1` (field: Tmax) = 30
